Kindly state EC50 for each of the entries shown.
Molecular target: Heat shock factor protein 1 (Mus musculus, UniProt P38532)
Sequence (P38532 whole entry): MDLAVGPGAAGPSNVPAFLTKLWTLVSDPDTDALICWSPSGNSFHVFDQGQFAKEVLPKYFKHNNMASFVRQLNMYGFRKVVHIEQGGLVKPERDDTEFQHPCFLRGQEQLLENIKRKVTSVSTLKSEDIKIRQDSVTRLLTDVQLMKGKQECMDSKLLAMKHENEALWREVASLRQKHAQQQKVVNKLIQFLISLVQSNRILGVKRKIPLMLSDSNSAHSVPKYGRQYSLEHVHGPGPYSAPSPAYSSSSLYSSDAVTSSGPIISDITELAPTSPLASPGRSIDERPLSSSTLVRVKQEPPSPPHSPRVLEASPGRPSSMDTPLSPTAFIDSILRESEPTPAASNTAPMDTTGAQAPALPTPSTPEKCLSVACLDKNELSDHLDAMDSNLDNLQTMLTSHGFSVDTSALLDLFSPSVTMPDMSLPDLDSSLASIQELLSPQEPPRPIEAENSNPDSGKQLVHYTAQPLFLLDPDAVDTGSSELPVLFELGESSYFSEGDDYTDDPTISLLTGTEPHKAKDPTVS
Assay: HSF1 potentiators in luciferase reporter cells, confirmation, cell-based, NIH3T3, luminescence, dose retest (AID 435004);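 note: stress induced by proteasome inhibitor MG132 added 30 min after compound; luciferase reporter driven by HSF1 response element in NIH3T3 cells; actives raise luminescence as potentiators of the MG132 stress response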
Type: functional
Activity calls are given as the source filed them.

molecule | EC50
Cc1ccc(C2C(C#N)=C(N)SC(N)=C2C#N)c(C)c1 | > 260 µM (inactive)

# map each molecule to its EC50
1. Cc1ccc(NC(=O)c2ccccc2O)cc1
2. CCN(CC)c1ccc([N+](=O)[O-])cc1C(=O)N1CCOCC1
3. Cc1ccc(Cl)cc1N1CCN(C2CCCCC2NS(=O)(=O)c2ccccc2)CC1 (stereo unspecified)
4. CC(=O)Nc1ccc(Nc2nc3c(S(=O)(=O)c4ccc(C)c(C)c4)nnn3c3ccccc23)cc1
5. CC(=O)c1ccc(NC2=c3ccccc3=NC2=O)cc1

1. 35.5 µM (active)
2. > 260 µM (inactive)
3. > 260 µM (inactive)
4. 112 µM (active)
5. > 260 µM (inactive)

====

For each entry below, report its IC50 value.
Target: Rac GTPase-activating protein 1 (Homo sapiens, UniProt Q9H0H5)
Sequence (Q9H0H5 whole entry): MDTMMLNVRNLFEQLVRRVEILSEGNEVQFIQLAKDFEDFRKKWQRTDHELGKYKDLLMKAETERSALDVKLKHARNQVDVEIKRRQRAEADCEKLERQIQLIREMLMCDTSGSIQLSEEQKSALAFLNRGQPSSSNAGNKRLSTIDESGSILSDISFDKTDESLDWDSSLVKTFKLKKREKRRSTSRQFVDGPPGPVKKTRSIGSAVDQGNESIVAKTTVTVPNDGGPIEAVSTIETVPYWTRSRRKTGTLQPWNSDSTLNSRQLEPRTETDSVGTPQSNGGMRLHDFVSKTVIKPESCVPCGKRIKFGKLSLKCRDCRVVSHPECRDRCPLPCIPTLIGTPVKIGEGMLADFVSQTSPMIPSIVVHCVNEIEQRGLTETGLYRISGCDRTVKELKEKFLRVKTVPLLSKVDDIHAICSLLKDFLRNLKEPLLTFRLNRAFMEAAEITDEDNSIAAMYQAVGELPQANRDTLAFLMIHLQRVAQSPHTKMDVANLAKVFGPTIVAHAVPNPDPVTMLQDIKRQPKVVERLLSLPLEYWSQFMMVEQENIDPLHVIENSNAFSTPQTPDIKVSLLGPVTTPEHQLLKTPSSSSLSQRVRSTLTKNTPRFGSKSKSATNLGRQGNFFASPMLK
Test: MgcRacGAP GTPase-activating activity inhibitors, confirmation, biochemical, ADP Hunter fluorescence, primary and confirmatory (AID 624330)
Format: functional
The source made the active and inactive calls.

molecule | reported metric | test result
O=C(CNCc1ccco1)Nc1ccc(N2CCCCCC2)cc1 | IC50 | 84.4 µM (active)
COc1cc(-c2nc3ccc(C)cn3c2Nc2ccc3c(c2)OCCO3)ccc1O | IC50 | 34.2 µM (active)
COc1ccccc1N1CCN(CC(=O)c2ccc(F)cc2)CC1 | IC50 | 157 µM (active)
Cc1c(O)ccc2c3c(c(=O)oc12)CCCC3 | IC50 | 22.5 µM (active)
COC1=C(Br)C(=O)c2nc(C)ccc2C1=O | IC50 | 68.1 µM (active)
COc1cc(C(=O)N/N=C(\C)c2ccc(NC(=O)Cc3ccccc3)cc2)ccc1O | IC50 | 145 µM (active)
O=C(CSc1ccc2ccccc2c1)N1CCN(c2ccc(O)cc2)CC1 | IC50 | 45.1 µM (active)
C1=Cc2ccccc2Nc2ccccc21 | IC50 | 14.9 µM (active)

Working through the 7 molecules below one at a time, give IC50 for each.
1. COc1ccc(OC)c(CN2CCN(Cc3cccc4ccccc34)CC2)c1
2. CCS(=O)(=O)C1=NN2C(=N)/C(=C\c3ccc(O)c(OC)c3)C(=O)N=C2S1
3. CN1CCN(CCOCCOc2ccc(Br)cc2Cl)CC1
4. CN(C)/N=C/c1ccc(OC(=O)c2cccc([N+](=O)[O-])c2)cc1
5. Cc1ccc(/C=C2/C(=O)ON=C2c2ccccc2)o1
6. COc1ccccc1C1Nc2cccc3cccc(c23)N1
7. COc1ccc(NC2CCCN(C(=O)c3ccc(C(C)=O)s3)C2)cc1 (stereo unspecified)

["66 µM (active)", "37.2 µM (active)", "84.1 µM (active)", "50.4 µM (active)", "36.9 µM (active)", "35.1 µM (active)", "80.9 µM (active)"]

Look up IC50 of O=C1NC(=S)N(C2CC2)C(=O)/C1=C/c1ccc2c(c1)CCN2CCCCl and report it. 95.6 µM (active)

====

Molecular target: Corticotropin-releasing factor receptor 2/Corticotropin-releasing factor-binding protein (Homo sapiens, UniProt P24387+Q13324)
Sequence (Q13324 whole entry): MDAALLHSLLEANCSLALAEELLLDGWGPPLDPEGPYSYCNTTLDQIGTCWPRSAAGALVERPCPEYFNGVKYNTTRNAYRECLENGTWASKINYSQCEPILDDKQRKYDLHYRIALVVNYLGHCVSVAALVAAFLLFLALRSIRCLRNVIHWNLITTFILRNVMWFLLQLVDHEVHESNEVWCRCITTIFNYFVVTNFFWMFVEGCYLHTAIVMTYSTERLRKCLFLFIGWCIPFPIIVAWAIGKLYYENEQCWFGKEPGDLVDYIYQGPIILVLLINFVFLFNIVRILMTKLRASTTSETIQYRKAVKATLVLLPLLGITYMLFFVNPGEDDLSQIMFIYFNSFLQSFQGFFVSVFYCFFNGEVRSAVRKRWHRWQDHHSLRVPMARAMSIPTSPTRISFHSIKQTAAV
Sequence (P24387 whole entry): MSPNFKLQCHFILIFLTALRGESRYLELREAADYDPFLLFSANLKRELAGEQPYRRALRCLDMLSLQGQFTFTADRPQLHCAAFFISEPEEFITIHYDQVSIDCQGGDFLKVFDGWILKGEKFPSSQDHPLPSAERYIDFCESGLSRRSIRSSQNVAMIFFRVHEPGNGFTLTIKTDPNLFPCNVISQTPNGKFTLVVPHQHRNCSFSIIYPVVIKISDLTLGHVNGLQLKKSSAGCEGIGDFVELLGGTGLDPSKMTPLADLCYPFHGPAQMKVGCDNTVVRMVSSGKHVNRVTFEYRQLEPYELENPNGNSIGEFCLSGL
Test: Dose Response confirmation of uHTS hits for small molecule antagonists of the CRF-binding protein and CRF-R2 receptor complex.
Type: functional
Conditions: read-out: IC50_Mean
Counter-ions that a name gives are not always drawn. Calls of active or inactive are those of the source.
Just give me one of these, please: active, inactive

molecule | answer label
O=C(O)C1=CCCNC1 [GUVACINE HYDROCHLORIDE] | inactive
Cc1cc(N2CCN(C)CC2)nc2ccc(NC(=O)CCC(=O)NCCCOC(C)C)cc12 | inactive
O=C(c1ccc(N2CCNCC2)cc1)c1cccnc1 | inactive
NC(=O)CS(=O)(=O)c1nc2ccccc2n1Cc1ccccc1F | inactive
CCOC(=O)c1nnc(-c2ccccc2)nc1N1CC(C)OC(C)C1 (centres undefined) | inactive

Could you check what this test reported for CC(Nc1ccc(Br)cc1)C(=O)Nc1cccc(S(=O)(=O)N2CCOCC2)c1 (centres undefined) ? inactive

Just curious, what result did Cc1cc(NC(=O)Cc2ccccc2)ccc1NC(=O)c1cccs1 get here? inactive

Look up the recorded call for CCOc1c(C)cc(-c2ncccc2O)cc1C in this test. inactive

Name the outcome recorded for O=S(=O)(Nc1cc(Cl)ccc1-n1cncn1)c1ccccc1Cl in the assay. active

====

Would you mind telling me the reported AC50 of each entry?
Molecular target: Paired box protein Pax-8 (Homo sapiens)
Sequence (Q06710 whole entry): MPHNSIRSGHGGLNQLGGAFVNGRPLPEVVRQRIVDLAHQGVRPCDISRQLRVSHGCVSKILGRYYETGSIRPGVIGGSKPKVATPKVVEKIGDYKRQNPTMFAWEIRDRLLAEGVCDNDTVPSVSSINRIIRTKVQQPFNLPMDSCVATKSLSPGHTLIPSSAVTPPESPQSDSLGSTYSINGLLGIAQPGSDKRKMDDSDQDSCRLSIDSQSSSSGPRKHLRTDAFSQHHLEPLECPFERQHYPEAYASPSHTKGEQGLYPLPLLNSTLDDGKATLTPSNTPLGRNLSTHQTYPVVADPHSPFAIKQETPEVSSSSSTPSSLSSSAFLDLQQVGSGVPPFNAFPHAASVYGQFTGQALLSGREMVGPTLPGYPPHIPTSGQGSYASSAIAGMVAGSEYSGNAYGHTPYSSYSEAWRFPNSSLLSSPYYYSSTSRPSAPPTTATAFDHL
Assay: inhibitors of PAX8-driven TPO luciferase reporter, dose response, RMG-I cells, cherry-pick (AID 687027);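 note: luciferase reporter driven by Pax8 target thyroperoxidase promoter measured by SteadyGlo luminescence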
Assay type: functional, cell-based
Activity calls are given as the source filed them.

chemical structure | AC50
COc1ccccc1-c1ccc2c(c1)[C@H]1[C@H](CCN1S(=O)(=O)c1ccccc1F)[C@H](CO)N2 | 8.48 µM (active)
C[C@H](CO)N1C[C@H](C)[C@H](CN(C)Cc2ccc(C(F)(F)F)cc2)OCCCC[C@H](C)Oc2ccc(NS(=O)(=O)c3ccccc3)cc2C1=O | 9.01 µM (active)
COc1cccc(/C=N/NC(=O)c2ccc(N3CCCC3=O)cc2)c1 | < 0.26 µM (active)

Provide one value: measured AC50 of Cc1ccc(S(=O)(=O)Nc2ccc3c(c2)C(=O)N([C@H](C)CO)C[C@H](C)[C@@H](CN(C)S(=O)(=O)c2ccc(Cl)cc2)OCCCC[C@H](C)O3)cc1 3.2 µM (active)

====

Target: Corticotropin-releasing factor receptor 2/Corticotropin-releasing factor-binding protein (Homo sapiens, UniProt P24387+Q13324)
Test: Dose Response confirmation of uHTS hits for small molecule antagonists of the CRF-binding protein and CRF-R2 receptor complex.
Type: functional
Conditions: read-out: IC50_Mean
The source made the active and inactive calls.
Response enum: t = active, f = inactive

Check the results log: what was the call for COc1ccc(CNC(=O)CCc2nc3cc(S(=O)(=O)N(C)C)ccc3n2C)cc1OC ? f

Recorded test outcome, item COc1cccc(CN2C(=O)C(C)N(C(=O)c3ccccc3)c3ccccc32)c1 (stereo not given) t

Check the results log: what was the call for O=C(Nc1cc(C(F)(F)F)ccc1-n1cncn1)c1ccc(Cl)cc1 ? f

# outcome recorded in this test, key = COc1ccc(NC(=O)CN2CCCC2c2cccs2)cc1S(=O)(=O)N1CCCCC1 (stereo not given) f

What did the test return for COc1ccc(Oc2nccc(-c3ccccc3)c2C#N)cc1 ? t

Source of measurements: ChEMBL document CHEMBL1201862
